Parameter: pKd. Scope: all listed entries.
EXPERIMENTAL_TARGET: T1, RSV F subtype B, furin-cleaved ectodomain stabilized in the prefusion conformation (DS-Cav1) (Respiratory syncytial virus subtype B)
T1 construct: extracellular domain; Trimeric soluble antigen; also called Prefusion subtype B
ASSAY_COMMENT: BLI, IgG on AHQ sensor, 100 nM antigen
Convention used: pKd is expressed as -log10 of the molar concentration.

Input line: # query: pKd of entry ADI-18876 (antibody, V domains shown, full-length IgG from yeast) VH: QVQLQESGPGLVKPSQTLSLTCTVSGPSISSGDYYWTWIRQPPGKGLEWIGYIYNSGSTDYNPSLKSRITMSLDRSKNQFSLNLSSVTAADTAVYFCARDVGTLVLPTVAYYYGMDVWGQGTTVTVSS VL: EIVLTQSPGTLSLSPGERATLSCRASESISSSYLAWYQQKPGQAPRLLIYDASSRATGIPDRFSGSGSGTDFTLTISSLEPEDFAVYYCQQYGSSPLVTFGPGTKVDIK
Output line: 9.50

Input line: # query: pKd of entry ADI-18915 (antibody, V domains shown, full-length IgG from yeast; also called Antibody Number 269; Ab # 269) VH: QVQLVQSGGGLVKPGGSLRLSCAASGFTFSKAWMNWVRQAPGKGLEWVGRIRSKTDGGTADYAAPVKGRFTMSRDDSKNTLYLQMNSLKTEDTAVYYCATDSRRLYDSRGFYSSAFDVWGQGTTVTVSS VL: QSVLTQPPSVSGAPGQRVTISCTGSSSNIGAGYDVHWYQHLPGTAPKVLIYGNNNRPSGVPDRFSGSKSGTSASLAITGLQAEDEADYYCQSYDDSLTGWVFGGGTKVTVL
Output line: 9.38

Input line: # query: pKd of entry ADI-18949 (antibody, V domains shown, full-length IgG from yeast) VH: QVQLVQSGAEVKKPGASVKVSCKTSGYTFSNYGISWLRQAPGQGLEWMAWISPYNGNTKSAQRFQGRVIMTTDTSTRTAHMEVKSLRTDDTATYYCARDPAVDAIPMLDYWGQGTMVTVSS VL: EIVLTQSPLSLPVTLGQPASISCRSSQSLVYTDGNTYLSWFQQRPGQSPRRLIYRVSHRDSGVPDRFTGSGSGTDFTLIIRRVEAEDVGVYYCMQGTHWPLTFGGGTKVEIK
Output line: 9.51
